Study system: pBTK (Homo sapiens)
Construct: Heparinized venous blood was purchased from Bioreclamation, Inc. or SeraCare Life Sciences; tissue Bioreclamation, Inc. or SeraCare Life Sciences
Sequence (Q06187 whole entry): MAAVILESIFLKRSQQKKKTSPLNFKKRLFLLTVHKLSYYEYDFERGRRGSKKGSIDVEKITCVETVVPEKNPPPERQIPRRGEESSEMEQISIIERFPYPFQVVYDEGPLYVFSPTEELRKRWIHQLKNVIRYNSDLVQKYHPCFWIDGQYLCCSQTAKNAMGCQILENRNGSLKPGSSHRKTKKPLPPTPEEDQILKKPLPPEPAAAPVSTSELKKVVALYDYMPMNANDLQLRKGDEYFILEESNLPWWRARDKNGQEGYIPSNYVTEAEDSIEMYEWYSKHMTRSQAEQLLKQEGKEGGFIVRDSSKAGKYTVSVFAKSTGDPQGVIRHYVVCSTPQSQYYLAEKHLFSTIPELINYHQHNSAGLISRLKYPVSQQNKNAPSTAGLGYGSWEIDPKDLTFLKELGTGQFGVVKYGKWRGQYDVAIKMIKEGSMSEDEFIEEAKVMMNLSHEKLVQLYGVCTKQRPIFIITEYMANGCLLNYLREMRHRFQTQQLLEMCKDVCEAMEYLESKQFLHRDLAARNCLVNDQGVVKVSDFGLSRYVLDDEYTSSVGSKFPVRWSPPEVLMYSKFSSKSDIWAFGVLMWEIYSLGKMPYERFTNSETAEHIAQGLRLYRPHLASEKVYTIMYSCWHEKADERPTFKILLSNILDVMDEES
Test method notes: In vitro PD assay in whole blood (pBTK assay)
Test settings: 30 min at 37° C.
Measured property: IC50

Look over these answered cases.
Compound	Value reported
O=C(N[C@H]1CCCc2cc(-c3ncnc4[nH]ncc34)ccc21)c1cc2c(s1)CCCC2	1500 to 10000 nM
Cc1cc(-c2ncnc3[nH]c(C4=CCN(C(=O)N(C)C)CC4)cc23)ccc1CNC(=O)c1cnc(C(C)(C)C)s1	< 500 nM
Cc1cc(-c2ncnc3cc(C4CCN(C)CC4)[nH]c23)ccc1CNC(=O)c1cnc(C(C)(C)C)s1	500 to 1500 nM

pBTK (Homo sapiens) data for Cc1cc(-c2ncnc3cc(-c4cnn(C)c4)[nH]c23)ccc1C(CO)NC(=O)c1cc2c(s1)CCOC2 (stereo not drawn) ; its IC50: 1500 to 10000 nM

pBTK (Homo sapiens) data for Cc1cc(-c2ncnc3nc(N4CCC(N(C)C)CC4)[nH]c23)ccc1CNC(=O)c1cnc(C(C)(C)C)s1 ; its IC50: 500 to 1500 nM

pBTK (Homo sapiens) data for CC(C)(C)c1csc(C(=O)NC2CCCc3cc(-c4ncnc5[nH]ncc45)ccc32)n1 (stereo in doubt) [Example I-100] ; its IC50: 1500 to 10000 nM

pBTK (Homo sapiens) data for O=C(NCc1ccc(-c2ncnc3[nH]ccc23)cc1C(F)(F)F)c1nc2c(s1)CCCC2 ; its IC50: 1500 to 10000 nM

pBTK (Homo sapiens) data for Cc1cc(-c2ncnc3cc(C4=CCN(C(=O)N(C)C)CC4)[nH]c23)ccc1CNC(=O)c1ncc(C(C)(C)C)s1 ; its IC50: < 500 nM
